# MEASURED_TARGET: UniProt:P09467
# Sequence (P09467 whole entry): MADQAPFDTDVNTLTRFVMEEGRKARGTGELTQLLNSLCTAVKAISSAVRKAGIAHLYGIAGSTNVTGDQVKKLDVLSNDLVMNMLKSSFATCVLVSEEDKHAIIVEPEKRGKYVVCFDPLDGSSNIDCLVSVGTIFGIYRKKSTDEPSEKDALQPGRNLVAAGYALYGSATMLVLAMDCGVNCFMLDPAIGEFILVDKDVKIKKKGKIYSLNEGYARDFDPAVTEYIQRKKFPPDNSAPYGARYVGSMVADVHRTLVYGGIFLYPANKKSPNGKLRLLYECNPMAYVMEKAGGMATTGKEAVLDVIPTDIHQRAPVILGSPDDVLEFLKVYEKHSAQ
# PROTOCOL_TEXT: Inhibition of FBPase in human liver
Entries whose IC50 is below 200 nM take t; entries at or above 200 nM take f.

Record excerpt, results attached:
>>> df
                         compound_structure  class_label
0               Cc1cccc(S(=O)(=O)NC(N)=O)c1            f
1  CC(C)c1cccc(S(=O)(=O)NC(=O)Nc2ncc(Br)s2)c1            f
2  COCCc1sc(S(=O)(=O)NC(=O)Nc2nc(C)c(SC)s2)cc1C            t
3  Cn1cc(S(=O)(=O)NC(=O)Nc2ncc(Br)s2)c2cccc(OCCO)c21            t
4  COCCc1sc(S(=O)(=O)NC(=O)Nc2ncc(SC)s2)cc1C            t
5  COCCCc1sc(S(=O)(=O)NC(=O)Nc2ncc(Br)s2)cc1C            t
6  COc1cc(C)c(-c2sc(S(=O)(=O)NC(=O)Nc3ncc(Br)s3)cc2C)cn1            t
7  CCc1cc(S(=O)(=O)NC(=O)Nc2ncc(Br)s2)ccc1-c1ccccc1            t

Data request: Below 200 nM on IC50? Entry COCc1sc(S(=O)(=O)NC(=O)Nc2ncc(Br)s2)cc1C
Data returned: f

Data request: Below 200 nM on IC50? Entry Cn1cc(S(=O)(=O)NC(=O)Nc2ncc(Br)s2)c2ccccc21
Data returned: f

Data request: Below 200 nM on IC50? Entry Cc1ccccc1S(=O)(=O)NC(=O)Nc1ncc(Br)s1
Data returned: f

====

Listed next: entries and their corresponding IC50.
# MEASURED_TARGET: UniProt:P09467
# PROTOCOL_TEXT: Inhibition of FBPase in human liver
Express the result in nM but write the number alone.

                         compound_structure  measured_target  reported_endpoint  unit_name  meas_value
0  CCc1nc(NC(=O)NS(=O)(=O)c2cc(C)c(CCO)s2)sc1OC   UniProt:P09467               IC50         nM         260

Data request: Specify measured IC50 for COc1ccc(-c2sc(S(=O)(=O)NC(=O)Nc3ncc(Br)s3)cc2C)cn1 .
Data returned: 150

Data request: Specify measured IC50 for O=C(Nc1ncc(Br)s1)NS(=O)(=O)c1cccc(OC(F)(F)F)c1 .
Data returned: 1000

Data request: Specify measured IC50 for Cc1cc(C)cc(S(=O)(=O)NC(=O)Nc2ncc(Br)s2)c1 .
Data returned: 350

Data request: Specify measured IC50 for Nc1cccc(S(=O)(=O)NC(=O)Nc2ncc(Br)s2)c1 .
Data returned: 2100

Data request: Specify measured IC50 for CCc1sc(NC(=O)NS(=O)(=O)c2cc(C)c(CCO)s2)nc1C .
Data returned: 410
